Data provenance: PubChem BioAssay (NCI)

# TEST DETAILS: NCI Yeast Anticancer Drug Screen. Data for the mec2-1 strain (AID 157)
# TEST PARAMETERS: S. cerevisiae mec2-1 strain, at 50.0 µM
The panel holds about 79,000 compounds, 15% with a hit somewhere; the sample as a whole holds those more often. Calls of active or inactive are those of the source. Rule as the data show it: active = growth inhibition above about 70%; inactive = the rest.
The reply should be one of these categories: 1.0 (active), 0.0 (inactive)

Per the records of this test, what outcome belongs to "O=C(CCSC1=NCCCN1)c1ccc(F)cc1" ?
1.0

Also need "NC(=S)N1N=C2c3ccccc3CC[C@@H]2[C@@H]1c1ccccc1" , thanks.
0.0

Also need COc1ccc(C(C)c2cc3c(cc2OC(C)O)OCO3)cc1 (stereo unspecified) , thanks.
0.0

Also need "CN(C)CC(CN(C)C)C(=O)/C=C/c1ccc(Cl)cc1Cl" , thanks.
0.0

Also need "CCCNCC(=O)O[C@]1(CC)C(=O)OCc2c1cc1n(c2=O)Cc2cc3ccccc3nc2-1" , thanks.
1.0

Also need COc1ccccc1/C=C\C(=O)C1COCN1 (stereo unspecified) , thanks.
1.0

* * *

# TEST DETAILS: NCI Yeast Anticancer Drug Screen. Data for the rad18 strain (AID 177)
# TEST PARAMETERS: S. cerevisiae rad18 mutant growth inhibition; at 100.0 µM
This is part of a sample that, as a whole, favours compounds with a hit. Of some 79,000 tested, about 15% had one in any assay. The source made the active and inactive calls. Rule as the data show it: active = growth inhibition above about 70%; inactive = the rest.
The reply should be one of these categories: active, inactive

Per the records of this test, what outcome belongs to "CCN(CC)CCNc1ccc(C)c2sc3ccc(O)cc3c(=O)c12" ?
active

Also need CC1(C)C(O)OC(O)C1(C)C (configuration not stated) , thanks.
active

Also need "c1ccc2c(c1)ccn2CCc1c[nH]c2ccccc12" , thanks.
active

Also need O=C1C(CCSc2ccccc2)C(=O)N(c2ccccc2)C1c1ccccc1 (configuration not stated) , thanks.
active

Also need "CCCCCCCCCCCCCCN" , thanks.
active

Also need "CCS(=O)(=O)Nc1ccc(Nc2c3ccccc3nc3ccccc23)c(OC)c1" , thanks.
active

Also need "CCCN=Cc1cc(Cc2ccc(O)c(C=NCCC)c2)ccc1O" , thanks.
active

Also need "OC1(C#CI)CCCCC1" , thanks.
active

Also need O=C1CSC(c2ccccc2)N1c1ccc(-c2ccc(-n3c(-c4ccccc4)nc4ccccc4c3=O)cc2)cc1 (configuration not stated) , thanks.
inactive

Also need "CCN(CC)CCNc1ccc2nc(C)n3c4ccc(O)cc4c(=O)c1c23" , thanks.
inactive

Also need CC(C)[Si]1(C(C)C)OCC2OC(n3cnc4c(N)ncnc43)C(N)C2O[Si](C(C)C)(C(C)C)O1 (configuration not stated) , thanks.
active

Also need "CCCCS(=O)(=O)Nc1ccc(Nc2c3ccccc3nc3ccccc23)c(OC)c1" , thanks.
active

* * *

# TEST DETAILS: NCI Yeast Anticancer Drug Screen. Data for the mgt1 strain (AID 153)
# TEST PARAMETERS: S. cerevisiae mgt1 mutant growth inhibition; at 33.0 µM; stronger effect = higher value
This is part of a sample that, as a whole, favours compounds with a hit. Of some 79,000 tested, about 15% had one in any assay.
Please use y whenever growth inhibition is not below 70%, and n whenever it is.

Please check the record O=C1C2=C(c3ccccc31)C(c1ccccc1)N1C(=O)CSC1=N2 (configuration not stated) and state if its growth inhibition is at or above 70%.
n

Also need "Oc1c2c(c(O)c3ccccc13)C1(N=N2)c2ccccc2Oc2ccccc21" , thanks.
y

Also need "COc1cc([N+](=O)[O-])c2ncccc2c1Br" , thanks.
n

Also need O=C(Cc1ccccc1)NN1C(=O)C(Cl)C1c1cc(Br)cc(Br)c1O (configuration not stated) , thanks.
y

Also need "CN(C)CC(CN(C)C)C(=O)/C=C/c1ccc(Cl)cc1Cl" , thanks.
y

Also need "O=C(Nc1ccc(Cl)cc1)c1cc2cc(N=Nc3ccccc3Cl)ccc2oc1=O" , thanks.
y

Also need "NCCOc1ccc(/C(=C(/Cl)c2ccccc2)c2ccccc2)cc1" , thanks.
y

Also need "O=[N+]([O-])[O][Sn]([O][Sn]([O][N+](=O)[O-])([c]1ccccc1)[c]1ccccc1)([c]1ccccc1)[c]1ccccc1" , thanks.
n

Also need "c1ccc2nc3c(nc2c1)sc1ccccc13" , thanks.
n

Also need "O=[N+]([O-])c1ccc2nc(=S)[nH]n2c1" , thanks.
n

Also need "CC1=CC(=O)C=CC1=Nc1cc(Cl)c(O)c(Cl)c1" , thanks.
n

* * *

Task for the reader: assign each of the following molecules its reported growth inhibition.
# TEST DETAILS: NCI Yeast Anticancer Drug Screen. Data for the wt2 strain (AID 169);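 also: 0% = growth of vehicle-treated yeast cultures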
# TEST PARAMETERS: S. cerevisiae wt2 strain growth inhibition; at 1.2 µM; stronger effect = higher value
About 79,000 compounds went through this panel and 15% of them were active in at least one assay; those are over-represented in the sample as a whole.
Your answer is read as %, so omit the unit and give the number.

Form field: reported growth inhibition of O=C1CCC(Cc2ccccc2)CN1 (stereo not given)
-3

Also need "CC(C)OC(=O)NNc1cc(Cl)ccc1Cl" , thanks.
3

Also need O=CC1(F)CC1(c1ccccc1)c1ccccc1 (stereo not given) , thanks.
-1

Also need N#CC1OB(O)c2ccccc21 (stereo not given) , thanks.
0

Also need "CN(C)N=Nc1ccc(N(C)C)cc1" , thanks.
-1

* * *

# TEST DETAILS: NCI Yeast Anticancer Drug Screen. Data for the sgs1 strain (AID 173);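 also: 0% = growth of vehicle-only control cultures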
# TEST PARAMETERS: S. cerevisiae sgs1 mutant, at 1.2 µM, stronger effect = higher value
About 79,000 compounds went through this panel and 15% of them were active in at least one assay; those are over-represented in the sample as a whole.
Please use yes whenever growth inhibition is not below 10%, and no whenever it is.

Please check the record "CC1=CC(C)(C)SC(SSSC2=NC(C)=CC(C)(C)S2)=N1" and state if its growth inhibition is at or above 10%.
no

Also need "O=C1C[C@H]2[C@H](c3ccc(Br)cc3)[C@H]3C(=O)c4ccccc4NC(=O)[C@@H]3[C@@]2(O)c2ccccc2N1" , thanks.
no

Also need "CCN(CC)CCNc1ccc(C)c2sc3ccc(O)cc3c(=O)c12" , thanks.
yes

Also need "O=C(NO)c1coc2ccccc2c1=O" , thanks.
no

Also need "Cc1c(C(=O)/C=C/c2ccccc2[N+](=O)[O-])[n+](=O)c2ccccc2n1[O-]" , thanks.
yes

Also need "CNCC(C)CNC" , thanks.
no

Also need "CC1=CC(=C(c2ccc(N)c(C)c2)c2ccc(N)c(C)c2)C=CC1=N" , thanks.
no

Also need BrC1C2CCC3OC3C12 (stereo not given) , thanks.
no

Also need "O=C1/C(=C/c2ccc(Cl)c(Cl)c2)CNC/C1=C\c1ccc(Cl)c(Cl)c1" , thanks.
yes

Also need O=C1NC(c2cccc(OCc3ccccc3)c2)Nc2ccccc21 (stereo not given) , thanks.
no

Also need "O=C(NCCCCN(CCCNC(=O)C(F)(F)F)Cc1ccccc1)C(F)(F)F" , thanks.
yes

Also need "OC1(C#CI)CCCCC1" , thanks.
no

Also need CC(CC/C(=N/O)c1ccccc1)(CC/C(=N\O)c1ccccc1)[N+](=O)[O-] (stereo not given) , thanks.
no

Also need "O=[N+]([O-])c1ccc(S(=O)(=O)Cc2ccccc2)c([N+](=O)[O-])c1" , thanks.
yes

Also need "CCCCCCCCCCCNC=O" , thanks.
no

Also need "O=C1c2cccc3cccc(c23)C(=O)N1O" , thanks.
yes

Also need "O=C1C=C(Br)C(=O)c2ccccc21" , thanks.
no

Also need "Oc1c2c(c(O)c3ccccc13)C1(N=N2)c2ccccc2Oc2ccccc21" , thanks.
yes

Also need "Nc1ccc2c(c1)C(=O)c1c(F)cccc1-2" , thanks.
no

Also need "O=C(/C(=C/c1ccc(O)cc1)c1ccccc1)c1ccccc1" , thanks.
no

Also need "CC(=O)/C=C/c1cc([N+](=O)[O-])ccc1O" , thanks.
no

Also need "CC(C)OC(=O)NNc1c(Cl)cc(Cl)cc1Cl" , thanks.
no

Also need CC(=O)CC(c1ccccc1)c1c(O)c2ccccc2oc1=O (stereo not given) , thanks.
yes

Also need "COC(=O)/C(C#N)=C\NC(=S)C(N)=S" , thanks.
no

Also need "COc1ccc2cc3c4cc5c(cc4cc[n+]3cc2c1OC)OCO5" , thanks.
yes

* * *

# TEST DETAILS: NCI Yeast Anticancer Drug Screen. Data for the bub3 strain (AID 167)
# TEST PARAMETERS: S. cerevisiae bub3 mutant strain, at 100.0 µM, stronger effect = higher value
This is part of a sample that, as a whole, favours compounds with a hit. Of some 79,000 tested, about 15% had one in any assay.
Task for the reader: assign each of the following molecules its reported growth inhibition.
Your answer is read as %, so omit the unit and give the number.

Form field: reported growth inhibition of OC(Cc1cccc2ccccc12)CN1CCC(c2ccccc2)CC1 (stereo unspecified)
97

Also need "O=[N+]([O-])c1ccc2[nH]c3c(-c4ccccc4)nccc3c2c1" , thanks.
96

Also need O=S(=O)(c1cccc(C(F)(F)F)c1)N1c2ccccc2-n2cccc2C1c1cccnc1 (stereo unspecified) , thanks.
90

Also need "CC(=O)Oc1ccc2c(c1)Cc1cc(N3C(=O)C=CC3=O)ccc1-2" , thanks.
97

Also need COc1ccc2c(c1)CCCC(Br)C2=O (stereo unspecified) , thanks.
97

Also need "Cc1cc(OCc2nc(N)nc(N)c2-c2ccc(Cl)c(Cl)c2)ccc1[N+](=O)[O-]" , thanks.
20

Also need O=C1C(CCSc2ccccc2)C(=O)N(c2ccccc2)C1c1ccccc1 (stereo unspecified) , thanks.
88

Also need "CCOC(=S)SSSC(=S)OCC" , thanks.
99

Also need "Nc1ccc(N=Nc2ccc(-c3ccc(O)cc3)cc2)c2ccc(S(=O)(=O)O)cc12" , thanks.
-9

Also need "c1c[nH]c(CN2CCN(Cc3ncc[nH]3)CC2)n1" , thanks.
98

Also need "c1ccc([P+](CCN2Cc3ccccc3C2)(c2ccccc2)c2ccccc2)cc1" , thanks.
94
